pKi: −log10 of the molar value.
The next entries give measured pKi for MOP receptor (Rattus norvegicus).
metric: pKi

>>> recorded_measurement("Cc1cc(O)cc(C)c1C[C@H](N)C(=O)N[C@H](CCCNC(=N)N)C(=O)N[C@H]1Cc2ccccc2CN(CC(=O)N(Cc2ccccc2)C2CC2)C1=O [Compound 8, H-Dmt-D-Arg-Aba-Gly-NcPr-Bn]")
9.52
>>> recorded_measurement("Cc1cc(O)cc(C)c1C[C@H](N)C(=O)N[C@H](CCCNC(=N)N)C(=O)N[C@H]1Cc2ccccc2CN(CC(=O)N(C)Cc2ccc3ccccc3c2)C1=O [Compound 13]")
8.55
>>> recorded_measurement("COc1ccccc1CN(C)C(=O)CN1Cc2ccccc2C[C@H](NC(=O)[C@@H](CCCNC(=N)N)NC(=O)[C@@H](N)Cc2c(C)cc(O)cc2C)C1=O [Compound 11, H-Dmt-D-Arg-Aba-Gly-NMe-2′-OMe-Bn]")
9.05
